Numbers sourced from paper PMC10053807.

testName: PAMPA permeability, liver total lipid extract (LTLE) membrane
conditionContext: bovine, PAMPA, pH 7.4
Answer FALSE if Papp at 4 h, 100 μM is under 40 ×10⁻⁶ cm/s, and TRUE if it is 40 ×10⁻⁶ cm/s or more.

>>> assignedclass("O=C1NC(=O)C(c2ccccc2)(c2ccccc2)N1 [phenytoin]")
"TRUE"
>>> assignedclass("NC(N)=Nc1nc(CSCCC(N)=NS(N)(=O)=O)cs1 [famotidine]")
"FALSE"
>>> assignedclass("COc1ccc2c(c1)N(C[C@H](C)CN(C)C)c1ccccc1S2 [levomepromazine]")
"FALSE"
>>> assignedclass("Nc1c(Br)cc(Br)cc1CN[C@H]1CC[C@H](O)CC1 [ambroxol]")
"TRUE"
>>> assignedclass("CC(=O)CC(c1ccccc1)c1c(O)c2ccccc2oc1=O (stereo not drawn) [warfarin]")
"FALSE"
>>> assignedclass("CCn1cc(C(=O)O)c(=O)c2cc(F)c(N3CCNCC3)nc21 [enoxacin]")
"FALSE"
>>> assignedclass("CC(C)Cc1ccc(C(C)C(=O)O)cc1 (stereo not drawn) [ibuprofen]")
"FALSE"
>>> assignedclass("Cc1c(OCC(F)(F)F)ccnc1C[S+]([O-])c1nc2ccccc2[nH]1 (stereo not drawn) [lansoprazole]")
"TRUE"
